Each entry below carries its reported Cmax.
- PROCEDURE TEXT: Single dose oral pharmacokinetic study
- Assay type: in vivo, mice
- EXPERIMENTAL SETUP: mouse, plasma; Mice oral PK @30 mg/kg (Table 3)
- Method: The test item was administered through oral route to animals (rat/mice) at 30 mg/kg dose in a suitable vehicle at 10 ml/kg dose volume. Blood samples (˜50 uL at each time point) were collected from retro-orbital plexus using K3 EDTA as anticoagulant in eppendorf tubes at defined time intervals under light ether anesthesia. […] Sample analysis: Test samples were analyzed using LC-MS-MS after developing fit-for-purpose method for each of test compound.
Return type: number; implicit unit ng/mL.

CC(C)(CC(=O)O[C@H]1CC[C@]2(C)[C@H]3CC[C@@H]4[C@H]5[C@H](C6(C)CC6)CC[C@]5(C(=O)N5CCC[C@H]5c5ncc(-c6ccccc6)[nH]5)CC[C@@]4(C)[C@]3(C)CC[C@H]2C1(C)C)C(=O)O	7260
C=C(C)[C@@H]1CC[C@]2(C(=O)N3CCC[C@@H]3c3nc(-c4cccnc4)no3)CC[C@]3(C)[C@H](CC[C@@H]4[C@@]5(C)CC[C@H](OC(=O)CC(C)(C)C(=O)O)C(C)(C)[C@@H]5CC[C@]43C)[C@@H]12	7430
C=C(C)[C@@H]1CC[C@]2(C(=O)N3CCC[C@H]3c3ncc(-c4cccnc4)[nH]3)CC[C@]3(C)[C@H](CC[C@@H]4[C@@]5(C)CC[C@H](OC(=O)CC(C)(C)C(=O)O)C(C)(C)[C@@H]5CC[C@]43C)[C@@H]12	5840

Field: next compound
## Task Name the reported Cmax value associated with the compound C=C(C)[C@@H]1CC[C@]2(C(=O)N3CCC[C@H]3c3ncc(-c4ccccc4)[nH]3)CC[C@]3(C)[C@H](CC[C@@H]4[C@@]5(C)CC[C@H](OC(=O)[C@H]6C[C@@H](C(=O)O)C6(C)C)C(C)(C)[C@@H]5CC[C@]43C)[C@@H]12
## Result 11000

---

- PROCEDURE TEXT: Single dose oral pharmacokinetic study
- Type: in vivo, mice
- EXPERIMENTAL SETUP: mouse, plasma; Mice oral PK @30 mg/kg (Table 3)
Each entry below carries its reported Tmax.
Return type: number; implicit unit h.

## Task Name the reported Tmax value associated with the molecule CC(C)(CC(=O)O[C@H]1CC[C@]2(C)[C@H]3CC[C@@H]4[C@H]5[C@H](C6(C)CC6)CC[C@]5(C(=O)N5CCC[C@H]5c5ncc(-c6ccccc6)[nH]5)CC[C@@]4(C)[C@]3(C)CC[C@H]2C1(C)C)C(=O)O [Compound 12]
## Result 3

## Task Name the reported Tmax value associated with the molecule C=C(C)[C@@H]1CC[C@]2(C(=O)N3CCC[C@H]3c3ncc(-c4ccccc4)[nH]3)CC[C@]3(C)[C@H](CC[C@@H]4[C@@]5(C)CC[C@H](OC(=O)CC(C)(C)CC(=O)O)C(C)(C)[C@@H]5CC[C@]43C)[C@@H]12 [Compound 9]
## Result 6

## Task Name the reported Tmax value associated with the molecule C=C(C)[C@@H]1CC[C@]2(C(=O)N3CCC[C@H]3c3ncc(-c4cccnc4)[nH]3)CC[C@]3(C)[C@H](CC[C@@H]4[C@@]5(C)CC[C@H](OC(=O)CC(C)(C)CC(=O)O)C(C)(C)[C@@H]5CC[C@]43C)[C@@H]12 [Compound 11]
## Result 1.25

## Task Name the reported Tmax value associated with the molecule C=C(C)[C@@H]1CC[C@]2(C(=O)N3CCC[C@H]3c3ncc(-c4ccccc4)[nH]3)CC[C@]3(C)[C@H](CC[C@@H]4[C@@]5(C)CC[C@H](OC(=O)[C@H]6C[C@@H](C(=O)O)C6(C)C)C(C)(C)[C@@H]5CC[C@]43C)[C@@H]12 [Compound 14]
## Result 5
